# ASSAY_COMMENT: Cytotoxicity against monkey Vero C1008 cells after 72 hrs by MTT assay
# Type: cell-based
# EXPERIMENTAL_PARAMETERS: chlorocebus sabaeus
ASSAY_METRIC: CC50 at 72 h (µM)
# number only, unit µM dropped from output

Before answering, review these 6 worked examples.
>>> experimental_result("O=c1c2ccccc2sn1-c1ccccc1")
19.4
>>> experimental_result("COc1ccccc1-n1sc2ccccc2c1=O")
24.5
>>> experimental_result("Cc1ccc(-n2sc3ccccc3c2=O)cc1")
19.9
>>> experimental_result("COc1ccc(-n2sc3ccccc3c2=O)cc1")
32.6
>>> experimental_result("O=c1c2ccccc2sn1-c1ccc(F)cc1")
85.4
>>> experimental_result("O=c1c2ccccc2sn1-c1ccc(Cl)cc1")
71.7

Now consider the entry below.
Q) Consider the molecule O=c1c2ccccc2sn1-c1cccc2ccccc12 and give its measured CC50 at 72 h.
A) 90.8

* * *

# Test system: Sporothrix schenckii
# ASSAY_COMMENT: Anti-fungal activity against Sporothrix schenckii after 48 hrs by broth microdilution method
# Format: functional
IC50 vs 0.9 µg/mL: less than gives 1.0; not less than gives 0.0.

>>> class("C[C@@H](c1ccccc1)n1sc2ccccc2c1=O")
1.0
>>> class("Nc1ccccc1-n1sc2ccccc2c1=O")
0.0

Q) Could you please tell me whether IC50 recorded for COC(=O)[C@H](c1ccccc1)n1sc2ccccc2c1=O is less than 0.9 µg/mL?
A) 0.0

Q) Now the same for O=c1c2ccccc2sn1C1CCCCC1n1sc2ccccc2c1=O (configuration not stated)
A) 0.0

Q) Now the same for COc1ccccc1-n1sc2ccccc2c1=O
A) 1.0

Q) Now the same for O=c1c2ccccc2sn1CCn1sc2ccccc2c1=O
A) 0.0

* * *

Parameter selectivity ratio: see the listing below.
# ASSAY_COMMENT: Selectivity index, ratio of CC50 for monkey Vero C1008 cells to IC50 for chloroquine-sensitive Plasmodium falciparum 3D7
# Type: toxicity
# EXPERIMENTAL_PARAMETERS: read-out: Ratio CC50/IC50
The response must contain the number and no unit.

Before answering, review these 4 worked examples.
>>> experimental_result("O=c1c2ccccc2sn1-c1cccc2ccccc12")
34.4
>>> experimental_result("O=c1c2ccccc2sn1-c1ccc(F)cc1")
84.4
>>> experimental_result("Cc1ccc(-n2sc3ccccc3c2=O)cc1")
12
>>> experimental_result("O=c1c2ccccc2sn1-c1ccccc1")
26.3

Now consider the entry below.
Q) Consider the compound O=c1c2ccccc2sn1-c1ccc(Cl)cc1 and give its measured selectivity ratio.
A) 70.8

* * *

# System: Candida albicans
# ASSAY_COMMENT: Anti-fungal activity against Candida albicans after 48 hrs by broth microdilution method
# Type: functional
MIC vs 4 µg/mL: less than gives y; not less than gives n.

// below: answered molecules
>>> class("CC(C)Cn1sc2ccccc2c1=O")
"y"
>>> class("COC(=O)[C@H](c1ccccc1)n1sc2ccccc2c1=O")
"n"
>>> class("O=c1c2ccccc2sn1-c1ccc(Cl)cc1")
"n"

Consider the record given below.
Q) Could you please tell me whether MIC recorded for CC(=O)Nc1ccccc1-n1sc2ccccc2c1=O is less than 4 µg/mL?
A) n

* * *

# Tested on: Staphylococcus aureus
# ASSAY_COMMENT: Antibacterial activity against methicillin-resistant Staphylococcus aureus ATCC 700699 by broth microdilution method
# Type: functional
# EXPERIMENTAL_PARAMETERS: Mu50
Parameter log10 of IC50: see the listing below.
Short version: log10 scale, IC50, µg/mL.

>>> experimental_result("C[C@@H](c1ccccc1)n1sc2ccccc2c1=O")
0.00
>>> experimental_result("O=c1c2ccccc2sn1-c1ccccc1-n1sc2ccccc2c1=O")
0.67
>>> experimental_result("O=c1c2ccccc2sn1CCn1sc2ccccc2c1=O")
-0.40
>>> experimental_result("COC(=O)[C@H](c1ccccc1)n1sc2ccccc2c1=O")
0.41

Now consider the entry below.
Q) Consider the molecule COC(=O)[C@H](C)n1sc2ccccc2c1=O and give its measured log10 of IC50.
A) -0.08

Data provenance: ChEMBL document CHEMBL3994637
